- System: VCAM-1
- assay-text: Inhibition of cytokine-induced VCAM-1 expression in proliferating HUVEC (cell-surface ELISA)
- Format: cell-based
- measurement-context: Homo sapiens, coincubated with tumor necrosis factor-alpha and compound for 20 hr, average of two runs
reported-metric: pIC50
// scale note: pIC50 = -log10(conc_M); give the bare number

Challenge: Could you share which pIC50 value was measured for CC(C)(C)c1cc(OC[Si](C)(C)c2ccco2)cc(C(C)(C)C)c1O ?
Response given: 4.89

These measurements were taken from patent EP0998477B1.
